- Test target: hGDH2 (human glutamate dehydrogenase isozyme 2) (Homo sapiens)
- Test description: NADH oxidation at […] nm, reductive amination of 2-oxoglutarate
- Assay type: biochemical
Measured attribute: IC50 (nM)
Form entry: value (nM) — number only.

INPUT: // lookup IC50 for CCCCCCCCCCCCCCCC(=O)SCCNC(=O)CCNC(=O)[C@H](O)C(C)(C)COP(=O)(O)OP(=O)(O)OC[C@H]1O[C@@H](n2cnc3c(N)ncnc32)[C@H](O)[C@@H]1OP(=O)(O)O [palmitoyl-CoA]
OUTPUT: 1820

###

- Test target: hGDH2 (human glutamate dehydrogenase isozyme 2) (Homo sapiens, UniProt P49448, C112A)
- Sequence (P49448 54-558 C112A): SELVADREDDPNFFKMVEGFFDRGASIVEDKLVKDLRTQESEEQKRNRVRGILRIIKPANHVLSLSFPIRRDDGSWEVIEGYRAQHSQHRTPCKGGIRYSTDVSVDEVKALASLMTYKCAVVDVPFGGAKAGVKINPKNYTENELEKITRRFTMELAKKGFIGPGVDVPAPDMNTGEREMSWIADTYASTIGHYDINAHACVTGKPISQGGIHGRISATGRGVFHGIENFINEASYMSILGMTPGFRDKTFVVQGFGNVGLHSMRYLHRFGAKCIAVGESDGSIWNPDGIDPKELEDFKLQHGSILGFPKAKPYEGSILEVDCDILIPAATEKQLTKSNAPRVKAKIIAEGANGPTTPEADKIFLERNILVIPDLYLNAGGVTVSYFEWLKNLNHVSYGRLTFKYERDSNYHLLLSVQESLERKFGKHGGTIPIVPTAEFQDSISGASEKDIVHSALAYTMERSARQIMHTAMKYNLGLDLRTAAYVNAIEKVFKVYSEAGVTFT
- Test description: NADH oxidation at […] nm, reductive amination of 2-oxoglutarate
Measured attribute: pIC50
Remember the convention: pIC50 equals -log10 of concentration in molar.

INPUT: // lookup pIC50 for CCCCCCCCCCCCCCCC(=O)SCCNC(=O)CCNC(=O)[C@H](O)C(C)(C)COP(=O)(O)OP(=O)(O)OC[C@H]1O[C@@H](n2cnc3c(N)ncnc32)[C@H](O)[C@@H]1OP(=O)(O)O [palmitoyl-CoA]
OUTPUT: 5.67

###

- Test target: hGDH2 (human glutamate dehydrogenase isozyme 2) (Homo sapiens, UniProt P49448, C327A)
- Sequence (P49448 54-558 C327A): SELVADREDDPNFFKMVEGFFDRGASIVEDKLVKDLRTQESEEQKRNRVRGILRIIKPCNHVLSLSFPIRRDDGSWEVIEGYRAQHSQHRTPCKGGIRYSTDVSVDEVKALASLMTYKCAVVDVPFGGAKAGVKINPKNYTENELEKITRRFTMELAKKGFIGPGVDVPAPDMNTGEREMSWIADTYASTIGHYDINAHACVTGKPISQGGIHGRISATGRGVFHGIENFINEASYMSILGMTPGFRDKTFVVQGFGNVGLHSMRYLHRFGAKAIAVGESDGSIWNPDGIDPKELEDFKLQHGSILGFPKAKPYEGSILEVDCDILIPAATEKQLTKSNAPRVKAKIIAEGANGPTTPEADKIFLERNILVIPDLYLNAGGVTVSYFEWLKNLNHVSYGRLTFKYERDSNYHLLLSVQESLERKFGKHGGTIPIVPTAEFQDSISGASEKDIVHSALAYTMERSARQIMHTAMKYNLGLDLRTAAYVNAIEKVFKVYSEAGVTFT
- Test description: NADH oxidation at […] nm, reductive amination of 2-oxoglutarate
Measured attribute: IC50

INPUT: // lookup IC50 for CCCCCCCCCCCCCCCC(=O)SCCNC(=O)CCNC(=O)[C@H](O)C(C)(C)COP(=O)(O)OP(=O)(O)OC[C@H]1O[C@@H](n2cnc3c(N)ncnc32)[C@H](O)[C@@H]1OP(=O)(O)O
OUTPUT: 2310 nM
